assay: chemical genetic growth profiling, strain panel (AID 1159580);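 also: tested at 20 µM; growth read once vehicle control cultures reached saturation at 30 °C; 1 = growth at the plate median or of vehicle wells; lower values mean less growth of the strain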; conditions: S. cerevisiae deletion strains, growth OD, locus YER015W, strain faa2, stronger effect = lower value
About 2,000 (36%) of roughly 5,500 compounds were called active. Inconclusive results (about 18%) are left out. The list shows a part of the results.
This section presents compounds with their documented normalized growth values.
I'd appreciate a reply containing only the number, no unit.

Solved cases (3 shown):
Compound	normalized growth
C[C@]12C=CC(=O)C=C1CCC1C2CC[C@]2(C)C(=O)CCC12 (some centres undefined)	0.981
C[C@]12C=CC(=O)C=C1CCC1C2C(=O)C[C@@]2(C)C1CC[C@]2(O)C(=O)CO (some centres undefined)	0.996
CC(C)(O)CC[C@@H](O)[C@](C)(O)C1CC[C@@]2(O)C3=CC(=O)C4C[C@@H](O)[C@@H](O)C[C@]4(C)C3CC[C@]12C (some centres undefined)	1

Prompt line: Any idea what normalized growth was measured for CC(=O)O[C@@H]1CC2C(C)(C)[C@H](O)C[C@H](O)[C@]2(C)C2CC[C@@]3(C)C(=CC(=O)O[C@H]3c3ccoc3)[C@@]21C (some centres undefined) ?
Response line: 0.976

====

assay: chemical genetic growth profiling, strain panel (AID 1159580);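 also: tested at 20 µM; growth read once vehicle control cultures reached saturation at 30 °C; 1 = growth at the plate median or of vehicle wells; lower values mean less growth of the strain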; conditions: S. cerevisiae deletion strains, growth OD, locus YML124C, strain tub3, stronger effect = lower value
Among all 5,500 compounds or so, about 2,000 (36%) were called active. Not shown: some 18% with an inconclusive outcome. This is one part of the list.
This section presents compounds with their documented normalized growth values.
I'd appreciate a reply containing only the number, no unit.

Solved cases (3 shown):
Compound	normalized growth
C=C(C)c1cc2cc(C(C)=O)c(O)cc2o1	0.906
CC1=C2[C@](C)(C=CC1=O)C[C@H](O)[C@H]1[C@H](C)C(=O)O[C@]21C	1.03
CC(=O)N[C@@H](CC(=O)O)C(=O)O	1.02

Prompt line: Any idea what normalized growth was measured for COc1cc(O)c(C(=O)c2ccccc2)c(OC)c1 ?
Response line: 0.983

Prompt line: Any idea what normalized growth was measured for CCS(=O)(=O)CCn1c([N+](=O)[O-])cnc1C ?
Response line: 1

Prompt line: Any idea what normalized growth was measured for COc1cc(O)c(C)c(O)c1 ?
Response line: 1.01

Prompt line: Any idea what normalized growth was measured for Cn1c([N+](=O)[O-])cnc1COC(N)=O ?
Response line: 0.99

Prompt line: Any idea what normalized growth was measured for COc1ccc2[nH]cc(CCNC(C)=O)c2c1 ?
Response line: 1.02

Prompt line: Any idea what normalized growth was measured for CC(=O)OCC(=O)[C@@]1(O)CCC2C3CCC4=CC(=O)CC[C@]4(C)[C@@]3(F)[C@@H](O)C[C@@]21C (some centres not stated) ?
Response line: 1.01

Prompt line: Any idea what normalized growth was measured for COC(=O)C[C@H]1C(C)(C)C(OC(C)=O)[C@]2(O)C=C3C4CC(=O)O[C@@H](c5ccoc5)[C@]4(C)CCC3[C@@]1(C)C2=O (some centres not stated) ?
Response line: 1.01

Prompt line: Any idea what normalized growth was measured for CCCCC/C=C\C/C=C\C/C=C\C/C=C\CCCC(=O)O ?
Response line: 0.983

Prompt line: Any idea what normalized growth was measured for COP(=S)(OC)SCn1nnc2ccccc2c1=O ?
Response line: 0.999

Prompt line: Any idea what normalized growth was measured for CCNc1nc(Cl)nc(NC(C)C)n1 ?
Response line: 1.02

Prompt line: Any idea what normalized growth was measured for Cc1ncc([N+](=O)[O-])n1CCO ?
Response line: 0.984

Recorded values, source PubChem BioAssay AID1159580.
